# testedOn: Serine/threonine-protein kinase mTOR (Homo sapiens, UniProt P42345)
# method: Inhibition of recombinant N-terminal FLAG-tagged human mTOR (1362 to end residues) at 500 nM using ULight-4E-BP1 (Thr37/46) peptide as substrate after 1 hr by fluorescence assay relative to control
reportedEndpoint: inhibition (%)
// note: answer is a bare numeric in %

Asked: Tell me inhibition reported for CN1CCN(c2nc(N3CCOCC3)c3cnn(CCCCCCC(=O)NO)c3n2)CC1
Given back: -0.4

Asked: Output inhibition of O=C(CCCCCn1ncc2c(N3CCOCC3)nc(N3CCOCC3)nc21)NO
Given back: -4.2

Asked: State its inhibition: O=C(CCCCCCn1ncc2c(N3CCOCC3)nc(-c3ccsc3)nc21)NO
Given back: 55

Asked: Supply reported inhibition belonging to this compound: COc1ccc(-c2nc(N3CCOCC3)c3cnn(CCCCCCC(=O)NO)c3n2)cc1
Given back: 38

Asked: State its inhibition for this compound: CN1CCN(c2nc(N3CCOCC3)c3cnn(CCCCCC(=O)NO)c3n2)CC1
Given back: -1.7

Asked: Specify inhibition for O=C(CCCCCCCn1ncc2c(N3CCOCC3)nc(N3CCOCC3)nc21)NO and stop.
Given back: 4.4

Asked: For the compound Nc1ncc(-c2nc(N3CCOCC3)c3cnn(CCCCCCC(=O)NO)c3n2)cn1 , give its measured inhibition value.
Given back: 40

Asked: Specify measured inhibition for Nc1ccc(-c2nc(N3CCOCC3)c3cnn(CCCCCCC(=O)NO)c3n2)cn1 .
Given back: 35

Asked: Identify measured inhibition corresponding to O=C(CCCn1ncc2c(N3CCOCC3)nc(N3CCOCC3)nc21)NO
Given back: 21

Asked: Provide one value: measured inhibition of O=C(CCn1ncc2c(N3CCOCC3)nc(N3CCOCC3)nc21)NO
Given back: -5

====

Give measured IC50 for each item. Keep answers brief.
# testedOn: Serine/threonine-protein kinase mTOR (Homo sapiens, UniProt P42345)
# method: Inhibition of recombinant N-terminal FLAG-tagged human mTOR (1362 to end residues) using ULight-4E-BP1 (Thr37/46) peptide as substrate after 1 hr by fluorescence assay
Respond numerically; units are nM and should not be typed.

Asked: In one line, give reported IC50 of the entry C[C@@H]1CN(C(=O)Nc2ccc(-c3nc(N4CCOCC4)c4cnn(CCCCCCC(=O)NO)c4n3)cc2)CCO1 .
Given back: 1.2

Asked: Write down IC50 measured for item CCN1CCN(C(=O)Nc2ccc(-c3nc(N4CCOCC4)c4cnn(CCCCCCC(=O)NO)c4n3)cc2)CC1
Given back: 3.1

Asked: Look up and state reported IC50 for Nc1ccc(-c2nc(N3CCOCC3)c3cnn(CCCCCCC(=O)NO)c3n2)cc1
Given back: 40

Asked: Using known records, supply IC50 for CN1CCN(C(=O)Nc2ccc(-c3nc(N4CCOCC4)c4cnn(CCCCCCC(=O)NO)c4n3)cc2)CC1
Given back: 3.4

====

# Tested on: OCI-AML2
# method: Antiproliferative activity against human OCI-AML2 cells after 72 hrs by MTT assay
# Assay type: functional, cell-based
# appliedConditions: OCI-AML2, 72 h
reportedEndpoint: IC50 (nM)
Field: numeric (nM). Do not append units.

Asked: Check the records and state IC50 for C[C@@H]1CN(C(=O)Nc2ccc(-c3nc(N4CCOCC4)c4cnn(CCCCCCC(=O)NO)c4n3)cc2)CCO1
Given back: 9.01

Asked: Output IC50 of CCN1CCN(C(=O)Nc2ccc(-c3nc(N4CCOCC4)c4cnn(CCCCCCC(=O)NO)c4n3)cc2)CC1
Given back: 3.97

Asked: Please report the measured IC50 for CN1CCN(C(=O)Nc2ccc(-c3nc(N4CCOCC4)c4cnn(CCCCCCC(=O)NO)c4n3)cc2)CC1
Given back: 8.55

Asked: Specify measured IC50 for CCCCNC(=O)Nc1ccc(-c2nc(N3CCOCC3)c3cnn(CCCCCCC(=O)NO)c3n2)cc1 .
Given back: 9.71

Asked: Indicate the recorded IC50 value for this compound: O=C(CCCCCCn1ncc2c(N3CCOCC3)nc(-c3ccc(NC(=O)N4CCNCC4)cc3)nc21)NO
Given back: 32.8

Asked: Provide only the value of recorded IC50 for CCNC(=O)Nc1ccc(-c2nc(N3CCOCC3)c3cnn(CCCCCCC(=O)NO)c3n2)cc1
Given back: 18.4

Asked: Could you please provide reported IC50 for O=C(CCCCCCn1ncc2c(N3CCOCC3)nc(-c3ccc(NC(=O)N4CCOCC4)cc3)nc21)NO ? Thanks!
Given back: 29

Asked: Answer with reported IC50 of O=C(CCCCCCn1ncc2c(N3CCOCC3)nc(-c3ccc(NC(=O)N4CCSCC4)cc3)nc21)NO
Given back: 16.9

====

# testedOn: Serine/threonine-protein kinase mTOR (Homo sapiens, UniProt P42345)
# method: Inhibition of recombinant N-terminal FLAG-tagged human mTOR (1362 to end residues) at 500 nM using ULight-4E-BP1 (Thr37/46) peptide as substrate after 1 hr by fluorescence assay relative to control
reportedEndpoint: inhibition (%)
Report only the number, with the unit % understood.

Asked: Tell me its inhibition given Nc1ccc(-c2nc(N3CCOCC3)c3cnn(CCCCCCC(=O)NO)c3n2)cc1 as the entry.
Given back: 95

Asked: Return reported inhibition. Input compound: O=C(CCCCCCn1ncc2c(N3CCOCC3)nc(-c3ccoc3)nc21)NO
Given back: 35

Asked: Look up and state reported inhibition for CS(=O)(=O)c1ccc(-c2nc(N3CCOCC3)c3cnn(CCCCCCC(=O)NO)c3n2)cc1
Given back: 64

Asked: Given O=C(CCCCn1ncc2c(N3CCOCC3)nc(N3CCOCC3)nc21)NO , respond with its inhibition.
Given back: -5.4

Asked: Check the records and state inhibition for COc1ccc(-c2nc(N3CCOCC3)c3cnn(CCCCCCC(=O)NO)c3n2)cn1
Given back: 58
